For each of the compounds below, state its CC50.
- TEST DESCRIPTION: in vitro
- CONDITIONS: dog

Challenge: Entry under review: "CCC(CC)O[C@@H]1C=C(P(=O)(O)O)C[C@H](N)[C@H]1NC(C)=O" . Reported CC50?
Response given: 74 µM

Challenge: Can you check CCC(CC)O[C@@H]1C=C(C(=O)O)C[C@H](N)[C@H]1NC(C)=O [Compound 2, reference compound] next?
Response given: > 100 µM

Challenge: Can you check CCC(CC)O[C@@H]1C=C(P(=O)(O)O)C[C@H](NC(=N)N)[C@H]1NC(C)=O [Compound 13b] next?
Response given: ~5 µM

Challenge: Can you check CCC(CC)O[C@@H]1C=C(C(=O)O)C[C@H](NC(=N)N)[C@H]1NC(C)=O [Compound 13a, reference compound] next?
Response given: > 100 µM

====

- ASSAYED SYSTEM: Neuraminidase (NA) from influenza virus A/WSN/1933 (H1N1) (Influenza A virus)
- Sequence (P03470 whole entry, looked up): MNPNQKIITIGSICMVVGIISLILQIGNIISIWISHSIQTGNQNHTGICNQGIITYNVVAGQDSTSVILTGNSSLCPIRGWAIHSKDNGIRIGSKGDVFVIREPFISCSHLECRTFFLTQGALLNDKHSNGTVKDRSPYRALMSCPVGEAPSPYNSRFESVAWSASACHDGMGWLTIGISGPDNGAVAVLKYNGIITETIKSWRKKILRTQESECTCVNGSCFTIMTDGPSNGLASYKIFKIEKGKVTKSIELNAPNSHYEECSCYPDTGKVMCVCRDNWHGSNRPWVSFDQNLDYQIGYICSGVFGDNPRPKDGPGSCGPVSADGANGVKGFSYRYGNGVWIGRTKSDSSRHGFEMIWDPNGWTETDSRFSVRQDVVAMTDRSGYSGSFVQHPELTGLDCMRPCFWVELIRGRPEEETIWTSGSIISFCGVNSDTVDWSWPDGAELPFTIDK
- TEST DESCRIPTION: biochemical
For each of the compounds below, state its pIC50.
pIC50 (log units): -log10 of the concentration in mol/L.

Challenge: Entry under review: CC(=O)N[C@H]1[C@H](O)C=C(P(=O)(O)O)C[C@@H]1N [Compound 14b] . Reported pIC50?
Response given: 5.49

Challenge: Can you check CC(=O)N[C@H]1[C@H](O)C=C(C(=O)O)C[C@@H]1N [Compound 14a, reference compound] next?
Response given: 4.44

====

- ASSAYED SYSTEM: NA from influenza virus A/Hanoi/30408/2005 (H5N1) (Influenza A virus (A/Hanoi/30408/2005(H5N1)))
- TEST DESCRIPTION: biochemical
PROPERTY: IC50 (nM)
Value expressed in nM; do not type the unit.

Challenge: Entry under review: CCC(CC)O[C@@H]1C=C(C(=O)O)C[C@H](N)[C@H]1NC(C)=O [Compound 2, reference compound] . Reported IC50?
Response given: 62.9

Challenge: Can you check CCC(CC)O[C@@H]1C=C(C(=O)O)C[C@H](NC(=N)N)[C@H]1NC(C)=O [Compound 13a, reference compound] next?
Response given: 160

Challenge: Can you check CCC(CC)O[C@@H]1C=C(P(=O)(O)O)C[C@H](NC(=N)N)[C@H]1NC(C)=O [Compound 13b] next?
Response given: 1.82

Challenge: Can you check "CCC(CC)O[C@@H]1C=C(P(=O)(O)O)C[C@H](N)[C@H]1NC(C)=O" next?
Response given: 13.3
